FYI, the data here is from ChEMBL document CHEMBL1201862.

system: Sentrin-specific protease 6 (Homo sapiens);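 also: Luminescence-based dose-response confirmatory assay of SENP6 inhibition, following up an ultra-high-throughput screen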
Sequence (Q9GZR1 whole entry): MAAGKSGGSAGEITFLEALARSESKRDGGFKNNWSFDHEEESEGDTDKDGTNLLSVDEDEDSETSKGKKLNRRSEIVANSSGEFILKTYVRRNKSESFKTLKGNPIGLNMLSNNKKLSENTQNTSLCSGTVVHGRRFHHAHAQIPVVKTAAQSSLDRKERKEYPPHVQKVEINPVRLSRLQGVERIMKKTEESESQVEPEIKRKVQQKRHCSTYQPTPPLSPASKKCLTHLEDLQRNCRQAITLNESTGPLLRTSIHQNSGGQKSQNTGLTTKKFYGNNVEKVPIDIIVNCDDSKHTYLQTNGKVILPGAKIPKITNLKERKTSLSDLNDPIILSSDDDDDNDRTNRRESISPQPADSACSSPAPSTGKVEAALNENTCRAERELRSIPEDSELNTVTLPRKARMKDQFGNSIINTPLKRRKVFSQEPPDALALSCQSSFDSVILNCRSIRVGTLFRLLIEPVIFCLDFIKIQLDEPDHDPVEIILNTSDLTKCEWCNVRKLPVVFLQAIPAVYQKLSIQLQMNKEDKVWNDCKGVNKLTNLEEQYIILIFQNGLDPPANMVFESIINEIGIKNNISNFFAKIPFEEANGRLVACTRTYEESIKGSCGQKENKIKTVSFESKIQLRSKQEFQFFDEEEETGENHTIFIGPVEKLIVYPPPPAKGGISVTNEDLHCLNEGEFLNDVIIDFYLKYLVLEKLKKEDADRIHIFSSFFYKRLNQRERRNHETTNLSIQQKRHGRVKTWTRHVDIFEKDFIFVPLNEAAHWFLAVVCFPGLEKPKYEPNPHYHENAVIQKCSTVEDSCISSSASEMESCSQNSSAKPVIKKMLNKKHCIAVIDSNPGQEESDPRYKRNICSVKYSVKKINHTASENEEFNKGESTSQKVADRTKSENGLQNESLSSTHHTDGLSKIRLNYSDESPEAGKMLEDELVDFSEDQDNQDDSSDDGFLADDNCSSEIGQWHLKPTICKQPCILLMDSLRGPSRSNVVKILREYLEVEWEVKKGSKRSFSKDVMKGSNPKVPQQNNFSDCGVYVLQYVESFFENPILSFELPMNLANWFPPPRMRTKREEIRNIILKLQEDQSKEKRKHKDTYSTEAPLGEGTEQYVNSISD
Assay type: functional
Calls of active or inactive are those of the source.
Outcomes: active, inactive

| molecule | system | group |
| --- | --- | --- |
| COCC(C)n1c(C)cc(C(=O)COC(=O)c2n[nH]c3ccccc23)c1C (configuration not stated) | Sentrin-specific protease 6 (Homo sapiens) | active |
| O=C(O)c1ccc(N/N=C/c2cn(Cc3ccc(F)cc3)c3ccccc23)cc1 | Sentrin-specific protease 6 (Homo sapiens) | active |
| Cc1nc(Cl)sc1C(=O)Nc1ccc2ccccc2c1 | Sentrin-specific protease 6 (Homo sapiens) | active |
| O=[N+]([O-])c1ccccc1N/N=C/c1c[nH]c2ccccc12 | Sentrin-specific protease 6 (Homo sapiens) | inactive |
| O=C(O)c1cccc(NC(=O)c2cccc(S(=O)(=O)Nc3cccc([N+](=O)[O-])c3)c2)c1 | Sentrin-specific protease 6 (Homo sapiens) | active |
| CN(CC(=O)Nc1ccccc1Cl)C(=O)COC(=O)c1ccc([N+](=O)[O-])s1 | Sentrin-specific protease 6 (Homo sapiens) | active |
| CC(C)c1ccc(/N=C/c2c(O)oc3ccccc3c2=O)cc1 | Sentrin-specific protease 6 (Homo sapiens) | active |
